Numbers sourced from a melting point compilation (Tetko et al.; mined from patent text by program, amines drawn as free bases though some values may be those of a salt).

Parameter: melting point. Scope: all listed entries.

molecule | property_measured | result
O=C(O)C(=O)C(=O)Nc1cccc([N+](=O)[O-])c1 | melting point | 110 °C
CCN1C=C(C(=O)OC)C(=O)CC1c1ccc(OC)c(OC)c1 (configuration not stated) | melting point | 134 to 135 °C

Given the molecule `COC(=O)c1cccc(CN2CCc3cc(O)c(OC)cc3C2)c1` , write its reported melting point. 156 to 158 °C

Given the molecule `O=C1CCc2cc(Cl)cc(Cl)c2C1` , write its reported melting point. 90 to 92 °C

Given the molecule `FC(F)(F)c1cc(Cl)c2cc(Cl)cc(Cl)c2n1` , write its reported melting point. 74 to 76 °C

Given the molecule CCCn1cc2c(C3C(=O)Nc4ccc(Br)cc43)nc(NCCCN3CCOCC3)nc2n1 (configuration not stated) , write its reported melting point. 298 to 303 °C

Given the molecule `Cc1ccc2cc(C(=O)O)oc2c1C` , write its reported melting point. 235 to 237 °C

Given the molecule CC(C(=O)OC1(C)CCCCC1)c1ccc(N)cc1 (configuration not stated) , write its reported melting point. 85 to 87 °C

Given the molecule `COC=C(C(=O)OC)N(C)c1cc(-c2cccc(OC)c2)ncn1` , write its reported melting point. 87 to 90 °C

Given the molecule `CCc1cc(CNc2nc3ccccc3o2)c(=O)[nH]c1C` , write its reported melting point. 211 to 213 °C

Given the molecule `Cc1cc2ncc(NC(=O)C=Cc3ccc(O)c(O)c3)c(-c3ccccc3Cl)c2cc1C` , write its reported melting point. 272 to 274 °C

Given the molecule `CCNc1cccnc1N1CCN(Cc2cc(C)c(O)c(C)c2)CC1` , write its reported melting point. 203 to 206 °C

Given the molecule `COc1cc2c(c3c1OC1(CCCC1)C3)C(c1ccccc1)=NC(C)(C)C2` , write its reported melting point. 130 to 131 °C

Given the molecule `Nc1ccc2c3c(cccc13)C(=O)N2` , write its reported melting point. 240 to 242 °C

Given the molecule `COCc1cccc(COC)c1C#N` , write its reported melting point. 80 to 81 °C

Given the molecule `Fc1cc(F)c2c(Nc3c(Cl)ccc4c3OCO4)ncnc2c1` , write its reported melting point. 234 to 237 °C

Given the molecule C#CCC(C(=COC)c1cccnc1)c1ccc(Cl)cc1Cl (configuration not stated) , write its reported melting point. 96 to 97 °C

Given the molecule `CCCCCCCCCCCCCCN(C)c1cc(OCC)c(N)cc1C(=O)O` , write its reported melting point. 80 to 81 °C

Given the molecule Oc1ccc(C2COc3cc(O)cc(O)c3C2)cc1 (configuration not stated) , write its reported melting point. 206 to 208 °C

Given the molecule O=C1N(Cc2ccc(Cl)o2)c2ccccc2C12COc1cc3c(cc12)OCO3 (configuration not stated) , write its reported melting point. 148 to 150 °C

Given the molecule `O=C(O)c1cn(-c2ccc(F)cc2)c2c(F)c(F)c(F)cc2c1=O` , write its reported melting point. 261 to 263 °C

Given the molecule CC(=O)OCC1OC(n2c3ccccc3c3c4c(c5c6cccnc6[nH]c5c32)C(=O)N(CO)C4=O)C(OC(C)=O)C(OC(C)=O)C1OC(C)=O (configuration not stated) , write its reported melting point. 264 to 266 °C
